- SUBJECT_OF_TEST: Acetyl-CoA carboxylase 2 (Homo sapiens, UniProt O00763)
- Sequence (O00763 whole entry): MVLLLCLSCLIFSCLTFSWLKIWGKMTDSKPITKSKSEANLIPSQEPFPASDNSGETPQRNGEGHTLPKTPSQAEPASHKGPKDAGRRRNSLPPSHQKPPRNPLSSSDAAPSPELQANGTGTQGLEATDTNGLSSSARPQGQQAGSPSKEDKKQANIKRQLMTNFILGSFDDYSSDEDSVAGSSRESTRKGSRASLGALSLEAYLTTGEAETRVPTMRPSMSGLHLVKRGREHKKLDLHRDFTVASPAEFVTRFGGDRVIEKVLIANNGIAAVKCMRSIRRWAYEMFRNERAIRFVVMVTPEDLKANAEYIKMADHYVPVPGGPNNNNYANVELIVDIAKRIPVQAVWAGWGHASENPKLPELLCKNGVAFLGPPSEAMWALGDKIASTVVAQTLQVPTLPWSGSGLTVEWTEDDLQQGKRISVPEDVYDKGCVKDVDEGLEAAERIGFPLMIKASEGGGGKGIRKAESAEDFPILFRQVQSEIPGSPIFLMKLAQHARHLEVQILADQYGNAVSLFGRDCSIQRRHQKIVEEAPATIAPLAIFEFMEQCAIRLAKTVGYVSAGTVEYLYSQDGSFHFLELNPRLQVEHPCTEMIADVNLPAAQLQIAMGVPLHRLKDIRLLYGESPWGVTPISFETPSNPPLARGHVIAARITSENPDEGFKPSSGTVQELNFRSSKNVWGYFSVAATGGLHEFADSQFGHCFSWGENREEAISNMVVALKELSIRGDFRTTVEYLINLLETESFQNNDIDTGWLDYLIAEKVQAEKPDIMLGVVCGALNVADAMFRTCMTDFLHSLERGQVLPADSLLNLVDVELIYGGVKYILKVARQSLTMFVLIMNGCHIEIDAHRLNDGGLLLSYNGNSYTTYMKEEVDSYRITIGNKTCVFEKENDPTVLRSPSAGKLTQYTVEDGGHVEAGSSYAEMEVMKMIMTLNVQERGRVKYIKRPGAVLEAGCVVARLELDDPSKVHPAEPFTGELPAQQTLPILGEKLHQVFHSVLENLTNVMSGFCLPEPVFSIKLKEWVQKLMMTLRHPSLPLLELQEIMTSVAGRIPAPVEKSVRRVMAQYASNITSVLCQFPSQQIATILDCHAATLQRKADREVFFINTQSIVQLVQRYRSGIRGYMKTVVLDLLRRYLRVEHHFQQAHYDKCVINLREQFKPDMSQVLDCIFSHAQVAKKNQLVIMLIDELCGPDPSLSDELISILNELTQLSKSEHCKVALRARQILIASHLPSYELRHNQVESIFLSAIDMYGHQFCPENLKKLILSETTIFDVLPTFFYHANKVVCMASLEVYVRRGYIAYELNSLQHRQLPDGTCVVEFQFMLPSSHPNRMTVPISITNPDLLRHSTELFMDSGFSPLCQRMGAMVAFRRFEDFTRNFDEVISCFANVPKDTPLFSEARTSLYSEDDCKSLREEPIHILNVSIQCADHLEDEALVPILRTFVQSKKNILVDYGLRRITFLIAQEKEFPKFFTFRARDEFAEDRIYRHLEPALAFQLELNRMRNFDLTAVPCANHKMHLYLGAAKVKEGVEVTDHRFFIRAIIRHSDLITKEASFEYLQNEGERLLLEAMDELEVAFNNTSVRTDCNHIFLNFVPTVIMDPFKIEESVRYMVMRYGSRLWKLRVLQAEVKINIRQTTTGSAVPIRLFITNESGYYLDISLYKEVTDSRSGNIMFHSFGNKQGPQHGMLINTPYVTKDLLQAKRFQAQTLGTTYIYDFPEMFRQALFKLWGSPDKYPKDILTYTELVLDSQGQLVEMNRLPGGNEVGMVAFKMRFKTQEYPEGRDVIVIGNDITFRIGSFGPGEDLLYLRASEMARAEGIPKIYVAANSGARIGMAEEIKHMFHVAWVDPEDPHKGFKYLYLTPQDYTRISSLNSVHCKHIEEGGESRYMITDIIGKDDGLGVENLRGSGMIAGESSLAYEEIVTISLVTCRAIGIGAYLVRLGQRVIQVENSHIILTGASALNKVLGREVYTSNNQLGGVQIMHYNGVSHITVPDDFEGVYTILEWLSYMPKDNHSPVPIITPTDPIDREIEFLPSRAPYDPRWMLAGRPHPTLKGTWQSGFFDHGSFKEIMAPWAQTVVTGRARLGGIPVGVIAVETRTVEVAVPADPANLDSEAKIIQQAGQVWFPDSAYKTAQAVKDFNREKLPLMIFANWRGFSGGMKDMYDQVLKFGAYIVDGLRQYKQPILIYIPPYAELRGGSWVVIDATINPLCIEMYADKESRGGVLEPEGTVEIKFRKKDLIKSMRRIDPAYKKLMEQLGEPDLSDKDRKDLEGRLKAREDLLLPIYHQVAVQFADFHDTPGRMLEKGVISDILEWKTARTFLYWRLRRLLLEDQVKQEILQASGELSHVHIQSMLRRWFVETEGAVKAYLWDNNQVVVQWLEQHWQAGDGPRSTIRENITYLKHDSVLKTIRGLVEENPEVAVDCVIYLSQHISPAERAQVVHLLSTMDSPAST
MEASURED_PARAMETER: IC50 (µM)
Provide only the numeric value, understood in µM.

Task: Record CC(NC(=O)N(C)C)c1ccc2nc(-c3ccc(Oc4cccc(OCC5CC5)c4)nc3)oc2c1 (stereo unspecified) : what is its IC50 with Acetyl-CoA carboxylase 2 (Homo sapiens, UniProt O00763)?
Output: 0.08

###

- TEST_METHOD_NOTES: in vivo
- TEST_SETTINGS: ICR, mouse, iv, 0.1 mg/kg
- Description: Half life in ICR mouse at 0.1 mg/kg, iv
MEASURED_PARAMETER: half-life

Task: Would you mind telling me what half-life value was observed for CC(=O)NC(C)c1ccc2nc(-c3ccc(Oc4cccc(OCC5CC5)c4)nc3)oc2c1 (stereo unspecified) ?
Output: > 8 h

###

- TEST_METHOD_NOTES: in vitro
- TEST_SETTINGS: mouse, liver microsomes
- Description: Metabolic stability in mouse Liver microsomes
MEASURED_PARAMETER: microsomal CLint (µL/min/mg)
Please state the figure in µL/min/mg; there is no need to write the unit.

Task: Look at this compound and give its reported microsomal CLint. CC(=O)NC(C)c1ccc2nc(-c3ccc(Oc4cccc(OCC5CC5)c4)nc3)oc2c1 (stereo unspecified)
Output: 65

###

- TEST_METHOD_NOTES: in vivo
- TEST_SETTINGS: ICR, mouse, po, 1 mg/kg
- Description: MRT in ICR mouse at 1 mg/kg, po
MEASURED_PARAMETER: MRT (h)
// note: answer is a bare numeric in h

Task: Can you look up the measured MRT of CC(=O)NC(C)c1ccc2nc(-c3ccc(Oc4cccc(OCC5CC5)c4)nc3)oc2c1 (stereo unspecified) for me?
Output: 3.69

###

- TEST_METHOD_NOTES: in vivo
- TEST_SETTINGS: ICR, mouse, iv, 0.1 mg/kg
- Description: Clearance in ICR mouse at 0.1 mg/kg, iv
MEASURED_PARAMETER: clearance (mL/min/kg)
Respond with the bare value in mL/min/kg.

Task: Suppose we examine the compound CC(=O)NC(C)c1ccc2nc(-c3ccc(Oc4cccc(OCC5CC5)c4)nc3)oc2c1 (stereo unspecified) ; what clearance value has been reported?
Output: 1.47

###

- TEST_METHOD_NOTES: in vivo
- TEST_SETTINGS: ICR, mouse, iv, 0.1 mg/kg
MEASURED_PARAMETER: Cmax (ng/mL)
Numeric answer only, unit ng/mL assumed.

Task: Need Cmax of CC(=O)NC(C)c1ccc2nc(-c3ccc(Oc4cccc(OCC5CC5)c4)nc3)oc2c1 (stereo unspecified) , thanks.
Output: 1110

###

- SUBJECT_OF_TEST: Acetyl-CoA carboxylase 1 (Homo sapiens)
MEASURED_PARAMETER: IC50 (nM)
API: value field is a number in nM; no unit string.

COMPOUND	IC50 (nM)
CNC(=O)NC(C)c1ccc2nc(-c3ccc(Oc4cccc(OCC5CC5)c4)nc3)oc2c1 (configuration not stated)	3.8

Now for another entry.
Task: IC50 for CC(NC(=O)N(C)C)c1ccc2nc(-c3ccc(Oc4cccc(OCC5CC5)c4)nc3)oc2c1 (configuration not stated) ?
Output: 2.1

###

- TEST_METHOD_NOTES: in vivo
- TEST_SETTINGS: ICR, mouse, po, 1 mg/kg
MEASURED_PARAMETER: bioavailability (%)
# unit: % | format: bare number

Task: // returns reported bioavailability for input CC(=O)NC(C)c1ccc2nc(-c3ccc(Oc4cccc(OCC5CC5)c4)nc3)oc2c1 (stereo unspecified)
Output: 60.6
